Sourced from patent US10174037B2

Molecular target: UniProtKB O00408
Sequence (O00408 other isoform, or with tags, fused parts or gaps): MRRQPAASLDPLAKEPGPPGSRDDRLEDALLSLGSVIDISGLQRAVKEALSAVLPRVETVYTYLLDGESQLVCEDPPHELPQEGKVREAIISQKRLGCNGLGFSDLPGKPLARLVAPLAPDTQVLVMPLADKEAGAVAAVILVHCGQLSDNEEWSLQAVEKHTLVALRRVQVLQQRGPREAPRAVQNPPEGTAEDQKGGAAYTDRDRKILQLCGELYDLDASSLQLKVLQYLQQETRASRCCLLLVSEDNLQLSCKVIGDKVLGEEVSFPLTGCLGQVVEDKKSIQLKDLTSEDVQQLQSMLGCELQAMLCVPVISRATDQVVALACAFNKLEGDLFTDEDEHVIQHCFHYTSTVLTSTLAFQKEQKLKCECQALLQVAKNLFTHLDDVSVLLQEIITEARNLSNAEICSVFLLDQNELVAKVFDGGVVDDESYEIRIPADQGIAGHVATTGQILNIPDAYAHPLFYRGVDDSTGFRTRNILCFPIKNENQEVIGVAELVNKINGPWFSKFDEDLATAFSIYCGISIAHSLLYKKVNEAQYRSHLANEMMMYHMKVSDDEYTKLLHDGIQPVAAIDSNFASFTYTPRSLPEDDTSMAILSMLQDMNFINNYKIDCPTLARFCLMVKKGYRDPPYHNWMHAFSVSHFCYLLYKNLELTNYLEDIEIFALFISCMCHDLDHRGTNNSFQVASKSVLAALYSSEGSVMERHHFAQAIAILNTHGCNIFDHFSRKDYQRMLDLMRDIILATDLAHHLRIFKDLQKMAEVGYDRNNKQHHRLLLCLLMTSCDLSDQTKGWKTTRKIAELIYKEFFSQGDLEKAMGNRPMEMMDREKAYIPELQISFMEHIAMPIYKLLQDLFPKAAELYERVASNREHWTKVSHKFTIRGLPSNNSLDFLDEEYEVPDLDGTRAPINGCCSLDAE
Assay: PDE selectivity IMAP FP assay, human PDE2A1
Assay type: biochemical
Details: Human PDE2; Lab B; read-out: Human PDE2 Ki (nM) Lab B
Sorting guide: entries reporting Ki beneath 2 nM go in the fulfilled pile, the rest go in the not fulfilled pile.

molecule: CN(C)c1nc2c(c(CO)nn2C(c2ccc(C(C)(F)F)c(F)c2)C2CC2)c(=O)[nH]1 (single isomer, unassigned) [Example 350]
class name: fulfilled

molecule: CC(C)C(c1ccc(C(F)(F)F)c(F)c1)n1nc(CO)c2c(=O)[nH]c(O)nc21 (single isomer, unassigned)
class name: not fulfilled

molecule: CCC(c1ccc(C(F)(F)F)c(F)c1)n1nc(CF)c2c(=O)[nH]c(N(C)C)nc21 (single isomer, unassigned) [Example 222]
class name: fulfilled

molecule: CC(C)C(c1ccc(C(F)(F)F)cc1)n1nc(CF)c2c(=O)[nH]c(N(C)C)nc21 (single isomer, unassigned) [Example 162]
class name: fulfilled

molecule: CN(C)c1nc2c(c(CO)nn2C(c2ccc(CC(F)(F)F)cc2)C2CC2)c(=O)[nH]1 (single isomer, unassigned) [Example 87]
class name: fulfilled

molecule: CCC(c1ccc(C(C)(F)F)cc1F)n1nc(CF)c2c(=O)[nH]c(N(C)C)nc21 (single isomer, unassigned) [Example 215]
class name: fulfilled

molecule: CC(C)C(c1ccc(C(C)(F)F)cc1F)n1nc(CO)c2c(=O)[nH]c(N(C)C)nc21 (single isomer, unassigned) [Example 119]
class name: fulfilled

molecule: C[C@H](c1ccc(C(F)(F)F)c(F)c1)n1nc(CF)c2c(=O)[nH]c(O)nc21 (mixture of isomers)
class name: not fulfilled

molecule: CC(C)C(c1ccc(C(F)(F)F)c(F)c1)n1nc(CF)c2c(=O)[nH]c(O)nc21 (single isomer, unassigned) [Example 55]
class name: fulfilled

molecule: CC(c1ccc(OC(F)(F)F)c(Cl)c1)n1nc(C(F)(F)F)c2c(=O)[nH]c(O)nc21 (single isomer, unassigned) [Example 322]
class name: not fulfilled

molecule: CC(c1ccc(OC(F)(F)F)c(F)c1)n1nc(C(F)(F)F)c2c(=O)[nH]c(O)nc21 (single isomer, unassigned) [Example 309]
class name: not fulfilled

molecule: CC(c1ccc(C(F)(F)F)c(F)c1)n1nc(C(F)(F)F)c2c(=O)[nH]c(O)nc21 (single isomer, unassigned) [Example 313]
class name: not fulfilled

molecule: CC(c1ccc(C(C)(F)F)c(F)c1)n1nc(CF)c2c(=O)[nH]c(N(C)C)nc21 (single isomer, unassigned) [Example 211]
class name: fulfilled

molecule: CN(C)c1nc2c(c(CF)nn2C(c2ccc(C(C)(F)F)cc2)C2CC2)c(=O)[nH]1 (single isomer, unassigned) [Example 213]
class name: fulfilled

molecule: CC(c1ccc(C(C)(C)C)cc1)n1nc(CO)c2c(=O)[nH]c(N(C)C)nc21 (single isomer, unassigned) [Example 66]
class name: not fulfilled

molecule: O=c1[nH]c(O)nc2c1c(CF)nn2[C@H](c1ccc(C(F)(F)F)c(F)c1)C1CC1
class name: not fulfilled

molecule: O=c1[nH]c(O)nc2c1c(C(F)F)nn2C(CC(F)(F)F)c1ccc(C(F)(F)F)cc1 (single isomer, unassigned) [Example 271]
class name: not fulfilled

molecule: O=c1[nH]c(O)nc2c1c(CF)nn2C(c1ccc(OC(F)(F)F)c(F)c1)C1CC1 (single isomer, unassigned) [Example 44]
class name: not fulfilled

molecule: C[C@@H](c1ccc(C(F)(F)F)cc1)n1nc(C(F)F)c2c(=O)[nH]c(N3CCC3)nc21
class name: fulfilled

molecule: CCC(c1ccc(C(C)(F)F)c(F)c1)n1nc(CF)c2c(=O)[nH]c(N(C)C)nc21 (single isomer, unassigned) [Example 216]
class name: fulfilled

molecule: CCC(c1ccc(C(F)F)c(F)c1)n1nc(CF)c2c(=O)[nH]c(N(C)C)nc21 (single isomer, unassigned) [Example 344]
class name: not fulfilled

molecule: CCC(c1ccc(C(C)(F)F)cc1)n1nc(CO)c2c(=O)[nH]c(N(C)C)nc21 (single isomer, unassigned) [Example 137]
class name: fulfilled

molecule: CC(c1ccc(C(C)(F)F)c(F)c1)n1nc(CO)c2c(=O)[nH]c(N(C)C)nc21 (single isomer, unassigned) [Example 107]
class name: fulfilled

molecule: CC(c1ccc(C(F)(F)F)c(F)c1)n1nc(CO)c2c(=O)[nH]c(O)nc21 (single isomer, unassigned)
class name: not fulfilled

molecule: CC(c1ccc(OC(F)(F)F)c(F)c1)n1nc(CF)c2c(=O)[nH]c(O)nc21 (centres unmarked)
class name: not fulfilled

molecule: CC(c1ccc(C(F)F)c(F)c1)n1nc(CO)c2c(=O)[nH]c(N(C)C)nc21 (single isomer, unassigned) [Example 104]
class name: not fulfilled
